Listed next: entries and their corresponding pIC50.
molecular target: human recombinant KAT-II (Homo sapiens (Human), UniProt Q8N5Z0); test: KAT-II inhibitory test; conditions: 3.0 μmol/L kynurenine, 37° C., 1 hr, pH 8.0; kynurenic acid quantified by HPLC
Sequence (Q8N5Z0 30-425): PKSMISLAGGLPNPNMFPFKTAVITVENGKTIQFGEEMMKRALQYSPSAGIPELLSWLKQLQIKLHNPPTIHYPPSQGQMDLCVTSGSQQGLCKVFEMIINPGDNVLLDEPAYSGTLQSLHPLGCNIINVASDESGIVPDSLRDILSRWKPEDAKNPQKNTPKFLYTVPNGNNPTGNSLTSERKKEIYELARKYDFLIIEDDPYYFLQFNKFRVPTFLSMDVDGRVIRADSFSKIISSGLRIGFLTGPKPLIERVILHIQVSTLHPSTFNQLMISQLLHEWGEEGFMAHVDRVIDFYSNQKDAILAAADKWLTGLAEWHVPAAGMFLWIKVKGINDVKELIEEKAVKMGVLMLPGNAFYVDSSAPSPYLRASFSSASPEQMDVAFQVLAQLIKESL
Please note pIC50 is a logarithmic value: minus log10 of concentration in mol/L. Answer with that number alone.

Given the compound O=C(NCc1ccccc1)[C@H]1CCCN1c1nn2c(=O)cc(-c3ccccc3)nc2s1 , what is its reported pIC50?
7.54

And the next one, CCc1nc2sc([C@H]3CCCN3C(=O)NC(C)(C)c3ccccc3)nc2c(=O)n1C ?
5.96

And the next one, CCc1nc2sc([C@H]3CCCN3C(=O)Oc3ccccc3)nc2c(=O)n1Cc1ccc(OC)cc1OC ?
6.57

And the next one, CC(C)c1nc2sc([C@H]3CCCN3C(=O)Oc3ccccc3)nc2c(=O)[nH]1 ?
7.82

----------
Biological target: human recombinant KAT-II (Homo sapiens (Human), UniProt Q8N5Z0)
Assay: KAT-II inhibitory test
Assay type: biochemical
Settings: 3.0 μmol/L kynurenine, 37° C., 1 hr, pH 8.0; kynurenic acid quantified by HPLC
Description: The compounds described in the above-mentioned Examples were used for the KAT-II inhibitory test. Preparation of Human Recombinant KAT-II Human recombinant KAT-II was prepared as follows. […] The inhibitory action of the test compound on human recombinant KAT-II was determined by the following method. […] The resultant kynurenic acid was quantified as follows by high performance liquid chromatography. […]
Measured Parameter: pIC50
Please note pIC50 is a logarithmic value: minus log10 of concentration in mol/L. Answer with that number alone.

Reference set, count: 3
> print(dat)
                         chemical.structure  measured.parameter  numeric.result
1  Cn1c(C(F)(F)F)cc2sc(N3CCC[C@@H]3C(=O)NCc3ccccc3)nc2c1=O               pIC50            7.26
2  CCc1nc2sc([C@H]3CCCN3C(=O)Oc3ccccc3)nc2c(=O)[nH]1               pIC50            7.54
3  Cn1c(C(F)F)nc2sc(N3CCC[C@@H]3C(=O)NCc3ccccc3)nc2c1=O               pIC50            7.57

So what pIC50 did Cn1c(C(F)(F)F)nc2ccc(N3CCC[C@@H]3C(=O)NCc3ccccc3)nc2c1=O get with human recombinant KAT-II (Homo sapiens (Human), UniProt Q8N5Z0)?
6.17

----------
target: human recombinant KAT-II (Homo sapiens (Human), UniProt Q8N5Z0); assay: KAT-II inhibitory test; conditions: 3.0 μmol/L kynurenine, 37° C., 1 hr, pH 8.0; kynurenic acid quantified by HPLC
Measured Parameter: IC50 (nM)
Respond numerically; units are nM and should not be typed.

> print(dat)
                         chemical.structure                         target.under.test  measured.parameter  unit.symbol  numeric.result
1  O=C(NC1(c2ccccc2)CC1)[C@H]1CCCN1c1nn2c(=O)c3ccccc3nc2s1  human recombinant KAT-II (Homo sapiens (Human), UniProt Q8N5Z0)                IC50           nM              29

Given the compound CCc1nc2sc(N3CCC[C@@H]3C(=O)NCc3nnc4ccccn34)nn2c(=O)c1F , what is its reported IC50?
32000

And the next one, Cc1cccc(CC(=O)N2CCC[C@@H]2c2nc3c(=O)[nH]c(C4(C(F)(F)F)CC4)nc3s2)c1 ?
37
